- target.or.system: T1, recombinant MTIP-His (61–204 residues) (Plasmodium falciparum, UniProt Q8I4W8 61-204)
- T1 construct: source: E. coli BL21 (DE3), purified (Ni-NTA, native conditions, dialysed against PBS); not shown: His6, C-terminal, kept
- T1 sequence: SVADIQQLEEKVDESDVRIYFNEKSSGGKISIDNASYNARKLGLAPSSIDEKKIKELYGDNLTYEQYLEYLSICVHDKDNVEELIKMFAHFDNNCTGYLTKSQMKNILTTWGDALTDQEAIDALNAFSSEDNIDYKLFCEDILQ
- assay.method.text: ITC; ITC200, 25 °C, phosphate buffer; MyoA tail in the syringe (100 µM for MTIP, 150 µM for ZA1), 10 µM MTIP or ZA1 in the cell; single site model
- condition.set: both partners purified
value.type: pKd
pKd is defined as minus the log10 of a concentration measured in mol/L.

Task: Provide pKd value for the following binder: NKNIPSLLRVQAHIRKKMVAQ (source: acquired from Genescript (peptide)) [Myosin A tail (798–818 residues), peptide]
Result: 6.34
